# Tested on: SNU-398
# Protocol description: Induction of apoptosis in human SNU398 cells assessed as caspase activation after 24 hrs by HTS assay
# Type: functional, cell-based
# Assay context: SNU-398, 24 h
Below, each of the compounds is paired with its reported pEC50 value.
Friendly reminder that pEC50 comes from taking -log10 of the concentration in mol/L.

Some compounds with known pEC50 results, for comparison:
| Compound | Target desc | pEC50 |
| --- | --- | --- |
| CC(=O)O[C@H]1C(=O)[C@@]2(C)[C@H]([C@H](OC(=O)c3ccccc3)[C@]3(O)C[C@H](OC(=O)[C@H](O)[C@@H](NC(=O)c4ccccc4)c4ccccc4)C(C)=C1C3(C)C)[C@]1(OC(C)=O)CO[C@@H]1C[C@@H]2O | SNU-398 | 7.96 |
| COc1cc(C2C(C#N)=C(N)Oc3c2ccc2c3ccn2C)cc(OC)c1OC (stereo unspecified) | SNU-398 | 8.52 |
| COc1cccc(C2C(C#N)=C(N)Oc3c2ccc2c3ccn2C)c1 (stereo unspecified) | SNU-398 | 8.30 |
| COc1cc(C2C(C#N)=C(N)Oc3c2ccc2[nH]ccc32)cc(Br)c1OC (stereo unspecified) | SNU-398 | 7.82 |

The measured pEC50 associated with CCn1ccc2c3c(ccc21)C(c1cc(Br)c(OC)c(OC)c1)C(C#N)=C(N)O3 (stereo unspecified) reads 7.60

The measured pEC50 associated with COc1cc(C2C(C#N)=C(N)Oc3c2ccc2ccn(C)c32)cc(Br)c1OC (stereo unspecified) reads 6.89

The measured pEC50 associated with COc1cc(C2C(C#N)=C(N)Oc3c2ccc2c3ccn2CO)cc(Br)c1OC (stereo unspecified) reads 8.70
